Tested on: OVCAR-5
Assay: NCI tumour cell line growth inhibition, 48 h
Calls of active or inactive are those of the source. Cut-off read from the data, not from the text of the source: active = GI50 up to about 1.1 µM and inactive = higher.
observable: GI50

INSERT INTO measurements (molecule, experimental_target, assay_result) VALUES
  ('O=C(O)CSc1nnc(-c2ccccc2)[nH]1', 'OVCAR-5', '> 100 µM (inactive)'),
  ('COC(=O)C(C(=O)C(=O)Nc1c(Cl)cc([N+](=O)[O-])cc1Cl)c1nc2cc(C)c(C)cc2nc1O (stereo not given)', 'OVCAR-5', '> 100 µM (inactive)'),
  ('CC1=Nc2nc3ccccc3n2C(C)(C)C1', 'OVCAR-5', '> 100 µM (inactive)'),
  ('CC/C(=C/OC)P1(=O)OC(C)(C)CN1C(C)(C)C (stereo not given)', 'OVCAR-5', '> 100 µM (inactive)'),
  ('O=C(/C=c1\oc(=O)/c(=C/C(=O)c2ccc(Cl)cc2)oc1=O)c1ccc(Cl)cc1', 'OVCAR-5', '> 100 µM (inactive)'),
  ('CC(C)(C)c1cc(C(=O)/C=C/c2ccc(C(=O)O)cc2)cc(C(C)(C)C)c1', 'OVCAR-5', '4.9 µM (inactive)'),
  ('OC1CSCCSCCCSCCSC1', 'OVCAR-5', '> 100 µM (inactive)'),
  ('C=CC(=O)NC(=N)NC#N', 'OVCAR-5', '177 µM (inactive)'),
  ('COC(=O)c1ccc(/C=C(\c2ccc([N+](=O)[O-])o2)S(=O)(=O)c2ccc(NC(C)=O)cc2)o1', 'OVCAR-5', '3.8 µM (inactive)'),
  ('COc1ccc(N(C(=O)OC(C)(C)C)[C@@H]2C(C)=C[C@H]([S@@+]([O-])c3ccc(C)cc3)[C@@H]3C(=O)N(C)C(=O)[C@@H]32)cc1', 'OVCAR-5', '21.9 µM (inactive)'),
  ('Cc1cc2nc3c(C#N)c4c(c(Cl)n3c2cc1C)CCC4', 'OVCAR-5', '25.1 µM (inactive)'),
  ('CC(C)N(C(=O)C12C3C4C1C1C2C3C41C#N)C(C)C (stereo not given)', 'OVCAR-5', '> 100 µM (inactive)'),
  ('O=P(O)(O)CN1CCN(CP(=O)(O)O)CCN(CP(=O)(O)O)CCN(CP(=O)(O)O)CC1', 'OVCAR-5', '73.8 µM (inactive)'),
  ('N#Cc1ccnc(C(=O)N2CCCC2C(=O)O)c1 (stereo not given)', 'OVCAR-5', '> 100 µM (inactive)'),
  ('CC(C)(C)c1ccc2c(c1)CNCCNCCNCc1cc(C(C)(C)C)ccc1OCC1(CO2)COc2ccc(C(C)(C)C)cc2CNCCNCCNCc2cc(C(C)(C)C)ccc2OC1', 'OVCAR-5', '1.72 µM (inactive)'),
  ('Cc1cc(S(=O)(=O)Nc2nc(N)nc(N3CCOCC3)n2)c(SCC(=O)O)cc1Cl', 'OVCAR-5', '> 10 µM (inactive)'),
  ('Nn1c(Cc2ccccc2)n[nH]c1=O', 'OVCAR-5', '> 100 µM (inactive)'),
  ('COc1ccc(-c2c3c(n(C4OC(COC(C)=O)C(OC(C)=O)C(OC(C)=O)C4OC(C)=O)c(=S)c2C#N)CCCC3)cc1 (stereo not given)', 'OVCAR-5', '> 100 µM (inactive)'),
  ('CCc1ccc(/N=C\c2cc(OC)c(OC)c(OC)c2)cc1', 'OVCAR-5', '> 100 µM (inactive)'),
  ('Nc1c(-c2nc3ccccc3s2)[n+]([O-])c2ccccc2[n+]1[O-]', 'OVCAR-5', '> 100 µM (inactive)');
